koff overview
tgt: C52Hg Brazilian variant (Acro) spike protein (SARS-CoV-2, UniProt P0DTC2 16-1213)
protocol: SPR (Carterra LSA); […]; 1:1 model; […]
All answers are understood in s⁻¹, so give the number only.

Below: 3 binders and their reported koff.
Look up koff for this binder: Antibody 1-10 (Fc fusion) EVQLVESGGGLVQPGSSLRLSCAASGGTFSSIGMGWFRQAPGKEREFVAAISWDGGATAYADSVKGRFTISADNSKNTAYLQMNSLKPEDTAVYYCAKEDVGKPFDWGQGTLVTVSS
0.00081

And what about the binder Antibody 1-8 (Fc fusion) EVQLVESGGGLVQPGGSLRLSCAASGRTLSRYTMGWFRQAPGKEREFVASITSGGTTNYADSVKGRFTISADNSKNTAYLQMNSLKPEDTAVYYCAKEDVGKPFDWGQGTLVTVSS ?
0.00017

And what about the binder Antibody 1-15 (Fc fusion) EVQLVESGGGLVQPGGSLRLSCAASGGIFSDMFMGWFRQAPGKEREFVATIDWSGDTAFYADSVKGRFTISADNSKNTAYLQMNSLKPEDTAVYYCAVDLSGDAVYDWGQGTLVTVSS ?
0.00028

***
Look up koff for this binder: Antibody 1-7 (Fc fusion) EVQLVESGGGLVQPGGSLRLSCAASGGTFSSIGMGWFRQAPGKEREFVAAISWDGGATAYADSVKGRFTISADNSKNTVYLQMNSLKPEDTAVYYCAKEDVGKPFDWGQGTLVTVSS
0.00025

And what about the binder Antibody 1-1 (Fc fusion) EVQLVESGGGLVQPGGSLRLSCAASGSIGSINAMGWFRQAPGKEREWVAGISNGGTTNYADSVKGRFTISADNSKNTAYLQMNSLKPEDTAVYYCAADGVPEYSDYASGPVWGQGTLVTVSS ?
0.00038

And what about the binder Antibody 1-16 (Fc fusion) EVQLVESGGGLVQPGGSLRLSCAASGRTYAMGWFRQAPGKERELVAEITAGGSTYYADSVKGRFTISADNSKNTAYLQMNSLKQEDTAVYYCAVDGPFGWGQGTLVTVSS ?
0.0034

And what about the binder Antibody 1-11 (Fc fusion) EVQLVESGGGLVQPGGSLRLSCAASGFTFDDYVMGWFRQAPGKEREFVAVISWTGESTLYADSVKGRFTISADNSKNTAYLQMNSLKPEDTAVYYCAAFDGYSGSDWGQGTLVTVSS ?
0.0014
